Entry source: the RNAGym collection of RNA variant scans (doi:10.1093/molbev/msab373)

B1: Azoarcus group I ribozyme (parent)
chain: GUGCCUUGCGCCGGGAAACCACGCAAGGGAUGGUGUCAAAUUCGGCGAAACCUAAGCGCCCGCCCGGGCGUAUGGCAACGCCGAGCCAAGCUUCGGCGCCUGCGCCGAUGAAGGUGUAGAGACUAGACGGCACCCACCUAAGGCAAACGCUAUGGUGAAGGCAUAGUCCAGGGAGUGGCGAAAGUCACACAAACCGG

- Variants of: B1
- method-description: reverse-splicing fitness (ratio to wild type); higher = more active; in vitro selection; Mg2+ level not given
Values of reverse-splicing fitness greater than or equal to 0.006 map to Criterion met; values below map to Criterion not met.

INSERT INTO results (alteration, label_value) VALUES
  ('C82G A111G A145C U176G', 'Criterion met'),
  ('A111C A120C A145G C150G', 'Criterion met'),
  ('C82U U176G', 'Criterion met'),
  ('C82A A111C A120U A145G C150G C169A U176G', 'Criterion not met'),
  ('C82G A145C C150A', 'Criterion met'),
  ('C82A A111U A120U A145C C150U C169A U176G', 'Criterion not met'),
  ('A145C C150A C169A U176C', 'Criterion met'),
  ('C82U A111U A120G A145C C150U C169A U176A', 'Criterion met'),
  ('C82A A120C A145G C169A U176G', 'Criterion not met'),
  ('C82A A120U C150A C169U U176G', 'Criterion not met'),
  ('C82A A111C A120C U176A', 'Criterion met'),
  ('C82U A111C A145C C150G C169A U176A', 'Criterion met'),
  ('C82G A111C A120G A145G C150A C169A U176C', 'Criterion met'),
  ('C82G A111C A145U C150U C169G', 'Criterion met'),
  ('C82U A111C A145C C150U C169G U176G', 'Criterion met'),
  ('C82A A111G A120C A145C C150G C169G', 'Criterion met'),
  ('A111C A120U A145G C169A', 'Criterion not met'),
  ('C82A A111G A120G A145G C169G', 'Criterion met'),
  ('C82U A120U A145U C150U C169G U176A', 'Criterion not met'),
  ('C82G A111C A120C A145U C150G U176A', 'Criterion not met'),
  ('A111G A120G U176C', 'Criterion met'),
  ('C82U A111C A145U C150G U176G', 'Criterion not met'),
  ('C82G A111U A120U A145G C169A U176A', 'Criterion not met'),
  ('A111U A120G A145G C150A C169G U176A', 'Criterion met'),
  ('C82G A111C A120U A145C C150U C169G', 'Criterion not met'),
  ('C82G A111U A120C C150U', 'Criterion met'),
  ('C82U A111U A145U C169G', 'Criterion met'),
  ('A111G A120G C169G U176G', 'Criterion met'),
  ('C82G A111U A120C A145C C150G C169A U176G', 'Criterion met'),
  ('C82A A120G A145C C150U C169G U176A', 'Criterion met'),
  ('C82A A111U A120G C150G C169A U176C', 'Criterion met'),
  ('A111U A120C A145U C150G C169A U176A', 'Criterion met'),
  ('C82A A111C A120C C150A C169G', 'Criterion met'),
  ('A111U A120U C150G C169G', 'Criterion met'),
  ('C82U A120C A145U C150A C169G U176G', 'Criterion not met'),
  ('C82A A111G A120U A145U C150U C169U U176G', 'Criterion not met'),
  ('C82A A111G A120U A145U C150G C169A U176G', 'Criterion not met'),
  ('A111U U176G', 'Criterion met'),
  ('C82G A111C A120U A145C C150A U176A', 'Criterion not met'),
  ('C82U A120G C150U C169U U176A', 'Criterion met'),
  ('C82A A111C A120U A145U C169G U176G', 'Criterion not met'),
  ('C82G A120U C169G U176A', 'Criterion not met');
